Recorded measurements of IC50, one per entry
Molecular target: Coenzyme A biosynthesis bifunctional protein CoaBC (Mycobacterium tuberculosis (strain ATCC 25618 / H37Rv), UniProt P9WNZ1)
Sequence (P9WNZ1 whole entry): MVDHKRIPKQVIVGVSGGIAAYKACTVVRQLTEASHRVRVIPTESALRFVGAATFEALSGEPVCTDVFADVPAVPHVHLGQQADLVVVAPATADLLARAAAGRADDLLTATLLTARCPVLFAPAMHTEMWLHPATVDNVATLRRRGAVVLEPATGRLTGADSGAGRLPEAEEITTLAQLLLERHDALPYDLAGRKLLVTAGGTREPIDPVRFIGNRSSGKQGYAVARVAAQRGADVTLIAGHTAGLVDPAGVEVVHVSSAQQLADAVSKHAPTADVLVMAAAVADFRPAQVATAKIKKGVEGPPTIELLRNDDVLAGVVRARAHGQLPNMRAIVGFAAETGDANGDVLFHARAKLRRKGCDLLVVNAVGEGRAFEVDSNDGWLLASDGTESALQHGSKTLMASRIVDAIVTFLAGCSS
Test: Biomol Green assay for MtCoaBC inhibitor, OD650 read
Experimental Endpoint: IC50

1. Cc1ccc(C(=O)O)c(N2Cc3cnc(C(C)(C)C)nc3C2)n1 = > 30.2 µM
2. COc1cccc(N2CCN(C(=O)C(C)Oc3ccccc3)CC2=O)c1 (configuration not stated) = > 30.2 µM
3. Cc1cccc(CS(=O)(=O)NCc2nn(C)c3c2COCC3)c1 = > 30.2 µM
4. CC(c1nc(-c2ccccc2)no1)N1CCc2c(ncn2C2CC2)C1 (configuration not stated) = > 30.2 µM
5. CS(=O)(=O)c1ccc(CN2C[C@H]3CC[C@@H]2CN(c2ncccn2)C3)cc1 = > 30.2 µM
6. CC(C)CCn1c(=O)n(CCn2cccc2)c2cc(C(=O)O)cnc21 = > 30.2 µM
7. Cc1ccc(OCCC(=O)N2CCOCC2c2ncon2)cc1C (configuration not stated) = > 30.2 µM
8. CCn1c(NCc2ccccn2)nc2c(C)nn(C)c2c1=O = > 30.2 µM
9. COc1ccc(C2CN(c3cc(C)ncn3)CCN2C(C)=O)cc1 (configuration not stated) = > 30.2 µM
10. Cc1csc(CN2CCC[C@]3(C[C@H](Oc4ccccn4)CO3)C2)n1 = > 30.2 µM
11. COc1c(C)cc(CNCc2ccnc(N3CCOCC3)c2)cc1C = > 30.2 µM
12. O=C1CC(c2ccc(C(=O)O)cc2)c2c(sc3c2CCCC3)N1 (configuration not stated) = > 50.1 µM
13. COCCCN(Cc1ccccn1)S(=O)(=O)N(C)C = > 30.2 µM
14. O=C(CN1CCN(C(=O)c2ccccc2)CC1)Nc1ncc(Br)cc1Br = > 30.2 µM
15. COC(=O)c1cccc2nc([C@H]3CCN(Cc4ccccc4)C3)oc12 = > 30.2 µM
16. O=C(C1CC1)N1CCC(c2nc(O)c3c(n2)CCN(C2CCCC2)C3)C1 (configuration not stated) = > 30.2 µM
17. Cc1cnn(CC2CCCN2Cc2nnc(C)o2)c1 (configuration not stated) = > 30.2 µM
18. O=c1cc(C2CCNCC2)nc(CCc2ccccn2)[nH]1 = > 30.2 µM
19. CCn1cc(CN(C)Cc2cnn(-c3ccc(F)cc3)c2)cn1 = > 30.2 µM
20. COCc1nc2cc(NCc3ccncc3)ccc2o1 = > 50.1 µM
21. CC(C)N1CCC(C(=O)N2CCc3c(nc(CC4CC4)[nH]c3=O)C2)CC1 = > 30.2 µM
22. O=C(CCNc1ncccn1)Nc1ccc(Cn2cncn2)cc1 = > 30.2 µM
23. O[C@]12CCNC[C@H]1CN(c1ncccc1Cl)CC2 = > 30.2 µM
24. CCc1ncc2c(n1)CN(Cc1nc(-c3cccs3)no1)CC2 = > 30.2 µM
25. CCN1CCCC1CNC(=O)Cc1c(-c2ccc(Cl)cc2)n[nH]c1C (configuration not stated) = > 30.2 µM
26. CCN1CCCC(O)(CN(C)Cc2ccc(C)o2)C1 (configuration not stated) = > 30.2 µM
27. FC(F)(F)c1cccnc1N1CCC(OC2CCOCC2)CC1 = > 30.2 µM
28. CCn1ncc2c1NC(=O)CC2c1cnc(-c2ccccn2)nc1 (configuration not stated) = > 30.2 µM
29. Cc1ccc(CN2C[C@@H]3CCN(Cc4ccncc4)C(=O)[C@H]3C2)s1 = > 30.2 µM
30. Cc1cc(C(F)(F)F)nn1CC(C)C(=O)Nc1ccccn1 (configuration not stated) = > 30.2 µM
31. O=C(NC[C@H]1OC[C@@H](NCc2ccc(F)cc2)[C@@H]1O)N1CCOCC1 = > 30.2 µM
32. Cc1nnc(CN(C)S(=O)(=O)c2ccc(Br)cc2Cl)n1C = > 30.2 µM
33. COc1ccc(CN2CCC3(CCCN(C)C3=O)C2)c(OC)c1C (configuration not stated) = > 30.2 µM
34. Cc1ccc(C)n1-c1ccc(C(=O)NCCNc2ncccn2)cc1 = > 30.2 µM
35. Cc1cnn(CC2CCCN2Cc2nnc(-c3ccccc3)o2)c1 (configuration not stated) = > 30.2 µM
36. Cc1nc(C)n(CC2CN(S(C)(=O)=O)Cc3nccn3C2)n1 (configuration not stated) = > 30.2 µM
37. CC(C)c1noc(C[S+]([O-])CC(=O)Nc2ccc(F)c(F)c2)n1 (configuration not stated) = > 30.2 µM
38. CCCS(=O)(=O)NCC(O)c1c(Cl)cccc1Cl (configuration not stated) = > 30.2 µM
39. Cc1csc(CCNCc2cnc3c(c2)c(C)nn3C)n1 = > 30.2 µM
40. CC(C(=O)N1CCCC1)S(=O)(=O)Cc1noc(C(C)(C)C)n1 (configuration not stated) = > 30.2 µM
41. O=C(NCCNc1ncccn1)C1CCCC1 = > 30.2 µM
42. Cc1cc(C(=O)N2CCCC(c3cc(=O)nc4n3CCC4)C2)on1 (configuration not stated) = > 30.2 µM
43. Cc1cc(CN2CCOC(CNc3cccnn3)C2)no1 (configuration not stated) = > 30.2 µM
44. Cc1nc(C)c(CC(=O)N2CCC(c3ccn4nccc4n3)CC2)s1 = > 30.2 µM
45. Cc1cc(C)n(-c2cccc(C(=O)Nc3n[nH]c(C4CCCO4)n3)c2)n1 (configuration not stated) = > 30.2 µM
46. CN(C)c1nccc(C2CCCCN2Cc2cnn3cccnc23)n1 (configuration not stated) = > 30.2 µM
47. Cn1cc(CNC2CCCOc3c2ccc2ccccc32)cn1 (configuration not stated) = > 30.2 µM
